Reference source for all entries: PubChem BioAssay

# System: Inhibin beta A chain (activin A)
# TEST PROTOCOL: INHBA (activin A) binders on microarrays, primary screen, biochemical, small-molecule microarray, 635 nm fluorescence scan (AID 1107);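 also: mouse activin A protein probed at 4.33 µg/mL on printed slides; score merges bound-protein fluorescence near 667 nm with spot signal-to-noise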
# MEASUREMENT CONDITIONS: small-molecule microarray binding, higher = more signal
// composite z-score lookup, one value per entry

| COMPOUND | composite z-score |
| --- | --- |
| CC(C)C[C@@H]1NC(=O)[C@@]23C(=O)N[C@@H](Cc4ccccc4)C2[C@H](C)[C@@]2(C)O[C@H]2C3/C=C/C/C=C\CNC(=O)[C@@H](CC(C)C)NC1=O (stereo not given in full) | 0.904 |
| C=C(CCCC)C(=O)CC[C@H](OC(C)=O)c1ccccc1OCCO | 0.491 |
| COCCOC(=O)N1C(=O)[C@@]2(c3cc(C#CC4=CCCCC4)ccc31)[C@H](C(=O)N1CCN(c3ncccn3)CC1)[C@H]1C(=O)O[C@H](c3ccccc3)[C@H](c3ccccc3)N1[C@@H]2c1ccccc1OCCO | 0.451 |
| O=c1cccc(-c2ccccc2C(F)(F)F)o1 | 1.11 |
| COC(=O)[C@H](Cc1ccc(O)cc1)N1CC2=CCCC=C[C@@H]2[C@H]1[C@H](O)Cc1ccccc1 | 0.493 |
| Cc1ccc(F)cc1S(=O)(=O)N[C@@H]1CCN(Cc2ccc3c(c2)OCO3)C1 | 0.528 |
| COCCOC(=O)N1C(=O)[C@@]2(c3ccccc31)[C@H](C(N)=O)[C@H]1C(=O)O[C@H](c3ccccc3)[C@H](c3ccccc3)N1[C@@H]2c1ccc(OCCO)cc1 | 0.319 |
| COCCOC(=O)N1C(=O)[C@@]2(c3cc(C#Cc4ccc(OC)cc4)ccc31)[C@H](C(=O)N1CCCCCCC1)[C@H]1C(=O)O[C@H](c3ccccc3)[C@H](c3ccccc3)N1[C@@H]2c1ccccc1OCCO | 1.66 |
| C=CCC(OC(C)=O)[C@@H]1[C@@H](N(Cc2ccc(-c3ccccc3)cc2)C(=O)c2cccc3ccccc23)c2cc(OCCCO)ccc2N1C(=O)c1ccc2ccccc2c1 (stereo not given in full) | 1.08 |
| CCCCC(=C=CC[C@@H](O)c1cccc(OCCO)c1)C[C@@H](O)COCc1ccccc1 | 0.211 |
| O=C(NCCO)C1=C[C@H](Oc2ccccc2I)[C@@H](O)[C@H](NCc2ccc(F)cc2)C1 | -2.01 |
| COCCOC(=O)N1C(=O)[C@@]2(c3cc(C#CCC(C(=O)OC)C(=O)OC)ccc31)[C@H](C(N)=O)[C@H]1C(=O)O[C@H](c3ccccc3)[C@H](c3ccccc3)N1[C@@H]2c1ccc(OCCO)cc1 | 0.444 |
| CC(C)CNC(=O)[C@@H]1c2ccccc2C(=O)N(CC23CC4CC(CC(C4)C2)C3)[C@H]1c1ccc(CO)cc1 | 0.471 |
| CN(C)CCCC[C@@H]1NC(=O)[C@H]2C[C@@H](C(=O)NCc3ccc(F)cc3)[C@@H](c3ccc(O)cc3)N2C1=O | 0.853 |
| C=CCNC(=O)[C@@H]1[C@H]2C(=O)O[C@H](c3ccccc3)[C@H](c3ccccc3)N2[C@H](c2ccc(O)cc2)[C@@]12C(=O)Nc1ccc(C#CC3(O)CCCCCC3)cc12 | -0.195 |
